Origin of measurements: patent US20120039810

molecular target: P-selectin (Homo sapiens, UniProt P16109 P16109:42-771); assay: EMSA; estimated; PBS with Ca2+ and Mg2+, 5 mM MgCl2, 1% NP40
Sequence (P16109 42-771, one chain of several): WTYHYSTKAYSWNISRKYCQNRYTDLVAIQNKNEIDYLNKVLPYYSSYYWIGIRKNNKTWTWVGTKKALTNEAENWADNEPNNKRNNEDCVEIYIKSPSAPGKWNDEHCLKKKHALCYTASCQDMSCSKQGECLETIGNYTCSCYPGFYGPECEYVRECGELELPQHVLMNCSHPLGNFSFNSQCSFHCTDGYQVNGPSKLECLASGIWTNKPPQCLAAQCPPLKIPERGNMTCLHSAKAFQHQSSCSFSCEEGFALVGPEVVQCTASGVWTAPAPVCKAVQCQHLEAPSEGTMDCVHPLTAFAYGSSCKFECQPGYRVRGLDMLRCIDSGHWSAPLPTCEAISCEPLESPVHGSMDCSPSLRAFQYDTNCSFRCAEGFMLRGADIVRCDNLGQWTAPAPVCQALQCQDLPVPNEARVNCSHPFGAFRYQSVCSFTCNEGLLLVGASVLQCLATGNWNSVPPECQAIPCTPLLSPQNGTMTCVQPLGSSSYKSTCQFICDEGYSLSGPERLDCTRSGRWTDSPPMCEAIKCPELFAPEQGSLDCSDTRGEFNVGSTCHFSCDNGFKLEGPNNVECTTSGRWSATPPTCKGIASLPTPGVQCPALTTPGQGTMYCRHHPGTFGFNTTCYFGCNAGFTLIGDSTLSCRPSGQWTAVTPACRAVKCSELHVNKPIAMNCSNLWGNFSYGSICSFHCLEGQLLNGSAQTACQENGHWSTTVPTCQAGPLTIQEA
Parameter Measured: Kd

Input: Name the recorded Kd for ESTA-1 (TA-1) (ssDNA, 5'-monothiophosphate (Rp) on all dA except in primer-binding region) DNA: CGCTCGGATCGATAAGCTTCGATCCCACTCTCCCGTTCACTTCTCCTCACGTCACGGATCCTCTAGAGCACTG .
Output: ~13 µM
